Target: BACE1 (Homo sapiens, UniProt P56817)
Sequence (P56817 46-501, species assumed): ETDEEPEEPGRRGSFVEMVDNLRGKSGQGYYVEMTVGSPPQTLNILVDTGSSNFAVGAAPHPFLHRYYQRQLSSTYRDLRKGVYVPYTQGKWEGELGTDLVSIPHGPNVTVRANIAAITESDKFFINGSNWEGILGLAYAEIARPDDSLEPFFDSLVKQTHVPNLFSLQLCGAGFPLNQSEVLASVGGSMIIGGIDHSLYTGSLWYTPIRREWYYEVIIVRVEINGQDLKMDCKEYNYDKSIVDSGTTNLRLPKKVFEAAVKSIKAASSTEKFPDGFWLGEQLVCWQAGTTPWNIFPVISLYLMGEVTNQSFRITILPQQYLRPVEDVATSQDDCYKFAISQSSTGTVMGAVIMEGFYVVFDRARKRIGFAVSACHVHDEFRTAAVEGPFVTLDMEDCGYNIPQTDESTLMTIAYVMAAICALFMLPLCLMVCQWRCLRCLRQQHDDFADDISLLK
Assay: In Vitro BACE Cell-based Assay (HEK cell assay): Aβ40 in conditioned medium of cells stably expressing Amyloid Precursor Protein, sandwich ELISA
Conditions: Table IV, class symbols; read-out: HEK cell assay
pIC50: −log10 of the molar value.
measured_endpoint: pIC50

Please give measured pIC50 of the following entry: "Cc1ccc(-c2ccc3c(c2)[C@]2(COC(N)=N2)c2cc(-c4cncnc4)ccc2O3)s1"
> 7.00

Please give measured pIC50 of the following entry: "COC(C)(C)C#Cc1cc(F)c2c(c1)[C@@]1(COC(N)=N1)c1cc(-c3ccc(F)nc3)ccc1O2"
5.30 to 6.00

Please give measured pIC50 of the following entry: "NC1=N[C@@]2(CO1)c1cc(-c3cc(Cl)ccc3F)ccc1Oc1ncc(C3=CCOCC3)cc12"
> 7.00

Please give measured pIC50 of the following entry: "CC(C)(C)C#Cc1cnc2c(c1)[C@@]1(COC(N)=N1)c1cc(-c3cncnc3)cc(F)c1O2"
6.00 to 7.00

Please give measured pIC50 of the following entry: "NC1=N[C@@]2(CO1)c1cc(-c3cccnc3)ccc1Oc1cnc(C(=O)CCCCO)cc12"
6.00 to 7.00

Next, consider the following compound.
Please give measured pIC50 of the following entry: "COc1ccc(-c2ccc3c(c2)[C@@]2(COC(N)=N2)c2cc(OCC(C)(C)C)ccc2O3)c(OC)n1"
< 5.30
